# Tested on: SH-SY5Y cells
# assay_procedure: AK (adenylate kinase) release ToxiLight cytotoxicity assay; further: reference of the scale not given here
# cond: PKIS2 primary screening
property_name: AK
Keep it simple and answer with nothing but the number.

Example compounds with recorded AK:
O=c1cc(N2CCOCC2)nc2n(Cc3cccc4ccccc34)ccn12 [UNC10225439A] | 77.38
COc1ccc(Nc2nccc(N3CCC(NC(=O)C(C)c4ccc(Cl)cc4)C3)n2)cc1 (stereo not shown) [GSK1379735] | 70.53
COc1cc2ncnc(Nc3ccc(OCc4ccccc4Br)c(Cl)c3)c2cc1OC.Cl [UNC10225261A] | 120.37
c1ccc(Oc2ccc(Nc3ccnc4cc(-c5ccc(CNCCN6CCOCC6)o5)ccc34)cc2)nc1 [UNC10225054A] | 119.39
Cc1ccc(NC(=O)Nc2ccc(Cl)c(C(F)(F)F)c2)cc1-c1ccc(C(=O)Nc2ccncc2)cc1 [UNC10225359A] | 88.88

Quickly give me recorded AK for C[C@@H](Oc1cc(-n2cnc3ccc(NC(=O)NC(C)(C)C)cc32)sc1C(N)=O)c1ccccc1Cl [UNC10225287A]
76.21

Quickly give me recorded AK for COc1ccc(CNC(=O)NC2CCN(c3ccnc(Nc4ccc(OC)cc4)n3)C2)cc1 (stereo not shown) [GSK1379727]
96.08

Quickly give me recorded AK for NC(=O)c1cc(-c2ccccc2)cc2c(C3CCNCC3)c[nH]c12 [UNC10225015A]
102.13

Quickly give me recorded AK for CN(C)CCNS(=O)(=O)c1ccc(-c2ccnc3[nH]ccc23)cc1 [UNC10225452A]
114.11

Quickly give me recorded AK for COC(=O)c1cccc(NC(=O)NC2CCN(c3ccnc(Nc4ccc(F)cc4)n3)C2)c1 (stereo not shown) [GSK1379725]
90.74

---

# Tested on: endogenous TFE3
# assay_procedure: TFE3 nuclear translocation, immunocytochemistry high-content imaging
# Type: cell-based
# cond: PKIS2 primary screening
Rule: TFE3 % of 20% or more gives y; anything lower gives n.

Item CCCCCc1nc2c(N)ncnc2n1CCCCC [UNC10225389A] with TFE3 % of 20% or above?
n

Item COc1cc2ncnc(Nc3ccc(OCc4ccccc4Br)c(Cl)c3)c2cc1OC.Cl [UNC10225261A] with TFE3 % of 20% or above?
n

---

Nuclear Count listing for selected compounds.
# Tested on: SH-SY5Y cells
# assay_procedure: Nuclear count from microscopy images (cellular growth and toxicity); further: reference of the scale not given here
# cond: PKIS2 primary screening

Example compounds with recorded Nuclear Count:
O=C(Nc1cccc(-c2nn3ccccc3c2-c2ccnc(Nc3cccc(C(F)(F)F)c3)n2)c1)c1c(F)cccc1F [UNC10225325A] | 61.45
Cc1ccc(NC(=O)c2ccnc(N3CCN(C)CC3)c2)cc1-c1ccc(C(=O)NCC2CC2)cc1 [UNC10225009A] | 101.80

Quickly give me recorded Nuclear Count for NCCCC(NC(=O)c1cc(Br)c(-c2ccnc3[nH]ccc23)s1)c1ccccc1.O=C(O)C(F)(F)F.O=C(O)C(F)(F)F (centres unmarked) [UNC10225265A]
128.28

Quickly give me recorded Nuclear Count for CNC(=O)c1ccccc1Nc1nc(Nc2ccc(N3CCOCC3)cc2)ncc1Cl [GSK1576028]
15.51

Quickly give me recorded Nuclear Count for Cl.O=C(Nc1cccc(-c2nn3ncccc3c2-c2ccnc(Nc3cccnc3)n2)c1)c1c(F)cccc1F [UNC10225440A]
119.73

Quickly give me recorded Nuclear Count for CC(C)N1CCC(n2cnc(-c3ccc(F)cc3)c2-c2ccnc(N)n2)CC1 [UNC10225258A]
83.47

Quickly give me recorded Nuclear Count for COc1ccc(CNC(=O)NC2CCN(c3ccnc(Nc4ccc(OC)cc4)n3)C2)cc1 (centres unmarked) [GSK1379727]
118.16

Quickly give me recorded Nuclear Count for Cc1ccc(NC(=O)Nc2ccc(Cl)c(C(F)(F)F)c2)cc1-c1ccc(C(=O)Nc2ccncc2)cc1 [UNC10225359A]
100.74

These measurements were taken from paper PMC9851200.
